# target.under.test: Factor Xa (Homo sapiens, UniProt P00742)
# Sequence (P00742 235-488 limits assumed): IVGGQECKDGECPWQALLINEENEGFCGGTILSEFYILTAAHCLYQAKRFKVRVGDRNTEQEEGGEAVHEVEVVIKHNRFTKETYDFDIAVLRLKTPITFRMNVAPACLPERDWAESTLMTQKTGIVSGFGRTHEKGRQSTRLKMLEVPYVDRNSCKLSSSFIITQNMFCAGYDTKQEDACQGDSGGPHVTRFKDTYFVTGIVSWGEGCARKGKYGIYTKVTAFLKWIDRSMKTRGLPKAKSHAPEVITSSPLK
# Sequence (P00742 41-179 partner limits assumed): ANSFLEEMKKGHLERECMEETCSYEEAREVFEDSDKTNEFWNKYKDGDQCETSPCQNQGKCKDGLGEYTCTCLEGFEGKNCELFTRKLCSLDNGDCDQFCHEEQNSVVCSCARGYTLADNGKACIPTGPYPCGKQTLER
experimental.readout: IC50 (µM)
Reply with just the number (in µM).

# value lookup — system Factor Xa (Homo sapiens, UniProt P00742), readout IC50, item O=C(O)c1cccc(N(S(=O)(=O)c2ccc3ccccc3c2)S(=O)(=O)c2ccc3ccccc3c2)c1 59

Numbers sourced from patent US5559150A.
